Every entry's value here was drawn from paper PMC10916382.

# EXPERIMENT: in vitro
# ASSAY_CONDITIONS: Anti-SARS-CoV-2 screening on Calu-3 cells: viability [% of control], Calu-3 cells
Where a name gives a salt, the structure may show the parent alone.
ENDPOINT: viability (%)
Write the number in % without appending the unit.

Examples from the recorded data:
CN(C)CC(O)COc1ccccc1C1CC2CCC1C2 (stereo not drawn) [RFM-012-243-0] :: 95.3
C[C@@H]1CCCN1CCc1cc2cc(-c3ccc(C#N)cc3)ccc2o1 [RFM-000-099-7] :: 98.3
CC/C(=C(/C#N)c1ccc(OCCN(CC)CC)cc1)c1ccc(Cl)cc1 [P-3622] :: 97.7
CCCCC1=Cc2cc3c(cc2C1N1CCN(C)CC1)OCO3 (stereo not drawn) [RFM-005-200-6] :: 102
CC(C)(C)NCc1ccc(Nc2ccnc3cc(Cl)ccc23)cc1O [N-tert-Butylisoquine] :: 106
OCCN1CCN(CCCC2c3ccc(F)cc3Sc3ccc(C(F)(F)F)cc32)CC1 (stereo not drawn) [RFM-010-066-3] :: 86.5
COCC(=O)O[C@]1(CCN(C)CCCc2nc3ccccc3[nH]2)CCc2cc(F)ccc2[C@@H]1C(C)C [mibefradil dihydrochloride] :: 98.3
CC(C)C(=O)c1ccc(OCCCN2CCC(C(O)(c3ccc(F)cc3)c3ccc(F)cc3)CC2)cc1 [RFM-010-056-1] :: 93.4

Problem: Which viability is listed for Cc1ccc(Sc2ccccc2N2CCNCC2)c(C)c1 [Vortioxetine hydrobromide] ?
Result: 82.8

Problem: Which viability is listed for CNCc1ccc(C)c(NC(=O)c2ccc(Nc3nc(-c4ccccc4)c4ccccc4n3)cc2)c1 [XL-139] ?
Result: 107

Problem: Which viability is listed for COc1cccc2c1C(=O)c1c(O)c3c(c(O)c1C2=O)C[C@@](O)(C(=O)CO)C[C@@H]3O[C@H]1C[C@H](N)[C@H](O[C@@H]2CCCCO2)[C@H](C)O1 [pirarubicin] ?
Result: 56.9

Problem: Which viability is listed for CCSc1ccc2c(c1)N(CCCN1CCN(C)CC1)c1ccccc1S2 [Thiethylperazine dimaleate] ?
Result: 95.3

Problem: Which viability is listed for CCN1[C@@H]2CC[C@H]1C[C@@H](OC(c1ccccc1)c1ccccc1)C2 [RFM-011-925-5] ?
Result: 117

Problem: Which viability is listed for OC1CCN(CCCN2c3ccccc3Sc3ccc(C(F)(F)F)cc32)C1 (stereo not drawn) [RFM-010-589-5] ?
Result: 110
